- target.system: hKv7.4 (Homo sapiens, UniProt P56696)
- Construct: expressed in transfected cells; host or cells: CHO
- Sequence (P56696 whole entry): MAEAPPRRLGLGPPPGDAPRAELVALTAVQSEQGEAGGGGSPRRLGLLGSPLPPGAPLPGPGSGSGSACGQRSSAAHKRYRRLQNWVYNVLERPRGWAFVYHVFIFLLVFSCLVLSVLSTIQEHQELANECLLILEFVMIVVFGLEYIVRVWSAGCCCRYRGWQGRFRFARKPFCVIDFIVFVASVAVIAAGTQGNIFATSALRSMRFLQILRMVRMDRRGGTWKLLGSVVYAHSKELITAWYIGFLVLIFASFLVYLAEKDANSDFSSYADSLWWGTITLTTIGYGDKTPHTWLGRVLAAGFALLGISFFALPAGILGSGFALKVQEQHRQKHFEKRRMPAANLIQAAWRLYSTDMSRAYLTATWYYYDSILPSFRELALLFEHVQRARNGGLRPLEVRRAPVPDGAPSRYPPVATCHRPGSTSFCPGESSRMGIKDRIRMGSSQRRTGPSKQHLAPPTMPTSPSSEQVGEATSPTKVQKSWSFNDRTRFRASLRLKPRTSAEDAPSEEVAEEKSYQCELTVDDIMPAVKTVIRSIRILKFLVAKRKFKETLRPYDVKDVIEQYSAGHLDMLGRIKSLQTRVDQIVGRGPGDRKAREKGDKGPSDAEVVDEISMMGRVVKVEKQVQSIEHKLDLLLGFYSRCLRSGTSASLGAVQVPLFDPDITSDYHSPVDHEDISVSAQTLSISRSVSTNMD
- test.method.notes: Kv7.4 HCS, FLIPR potassium assay
- Assay type: cell-based
- test.context: Thallium ions (Tl+) fluorescence; read-out: hKv7.4 EC50
observable: EC50 (µM)
I only need the number, in µM, no unit after it.

Task: Entry O=C(Cc1nccc(-n2cc(Cl)c3cc(Cl)cc(Cl)c32)n1)NC1COCC1O (stereo not shown) has what EC50?
Result: 46.2

###

- target.system: CYP2B6 (Homo sapiens, UniProt P20813)
- Construct: pre-incubation of the human liver microsomes with the test compound; tissue Corning; host or cells: human liver microsomes
- Sequence (P20813 whole entry): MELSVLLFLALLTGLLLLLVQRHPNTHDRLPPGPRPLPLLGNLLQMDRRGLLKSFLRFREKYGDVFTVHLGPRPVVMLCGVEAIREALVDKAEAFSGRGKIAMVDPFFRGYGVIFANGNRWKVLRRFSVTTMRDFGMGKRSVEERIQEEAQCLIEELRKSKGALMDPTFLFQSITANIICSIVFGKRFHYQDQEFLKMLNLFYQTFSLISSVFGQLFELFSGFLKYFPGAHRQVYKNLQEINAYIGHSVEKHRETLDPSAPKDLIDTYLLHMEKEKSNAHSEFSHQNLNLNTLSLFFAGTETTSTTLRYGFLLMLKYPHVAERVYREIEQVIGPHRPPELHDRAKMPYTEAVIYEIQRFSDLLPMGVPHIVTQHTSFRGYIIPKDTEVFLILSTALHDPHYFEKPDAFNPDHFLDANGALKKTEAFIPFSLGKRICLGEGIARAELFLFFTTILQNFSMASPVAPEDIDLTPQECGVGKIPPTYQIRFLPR
- test.method.notes: CYP inhibition / time-dependent inhibition, CYP2B6_Bupropion
- Type: in vitro ADME
- test.context: role: inhibitor; (+)NADPH pre-incubation; substrate bupropion; read-out: IC50 (+)NADPH CYP2B6_Bupropion
observable: pIC50
# log scale: pIC50 equals minus log10 of the concentration in mol/L

Task: Which measured pIC50 belongs to `O=C(Cc1cncc(-n2cc(Cl)c3cc(Cl)cc(Cl)c32)c1)N[C@@H]1COC[C@H]1O` , tested on CYP2B6 (Homo sapiens, UniProt P20813)?
Result: 5.05
